Quick record of pKd values for ERK protein (Homo sapiens, UniProt P28482).
Answers are plain numbers, as −log10 of the molar value.

Example results:
COMPOUND	ENDPOINT_NAME	VALUE_OBSERVED
O=C(Nc1ccc2[nH]nc(-c3ccncc3)c2c1)C1CN(Cc2ccc(Cl)cc2)CCO1 (centres unmarked) [Compound 27]	pKd	5.45
O=C(Nc1ccc2[nH]nc(-c3ccncc3)c2c1)C1CNCCC1c1ccc(F)cc1 (centres unmarked) [Compound 52]	pKd	7.74
O=C(Nc1ccc2[nH]nc(-c3ccncc3)c2c1)C1CCN(Cc2ccccc2F)C1 (centres unmarked) [Compound 65]	pKd	7.53
N#Cc1cccc(CN2CCOC(C(=O)Nc3ccc4[nH]nc(-c5ccncc5)c4c3)C2)c1 (centres unmarked) [Compound 31]	pKd	5.56
O=C(Nc1ccc2[nH]nc(-c3ccncc3)c2c1)C1CCCN(Cc2ccccc2Br)C1 (centres unmarked) [Compound 21]	pKd	8.40

Field: pKd. Fill in for each record below.
1. O=C(Nc1ccc2[nH]nc(-c3ccncc3)c2c1)C1CN(Cc2ccc(Cl)cc2F)CCO1 (centres unmarked) [Compound 41]
2. O=C(Nc1ccc2[nH]nc(-c3ccncc3)c2c1)C1CN(Cc2cc(F)ccc2F)CCO1 (centres unmarked) [Compound 51]
3. O=C(Nc1ccc2[nH]nc(-c3ccncc3)c2c1)C1CN(Cc2ccccc2F)CCS1 (centres unmarked) [Compound 10]
4. N#Cc1ccccc1N1CCCC(C(=O)Nc2ccc3[nH]nc(-c4ccncc4)c3c2)C1 (centres unmarked) [Compound 55]
5. O=C(Nc1ccc2[nH]nc(-c3ccncc3)c2c1)C1CN(Cc2ccccn2)CCS1 (centres unmarked) [Compound 12]
6. O=C(Nc1ccc2[nH]nc(-c3ccncc3)c2c1)[C@@H]1CN(Cc2ccccc2F)CCS1 [Compound 60]

Response:
[6.23, 6.14, 7.82, 7.64, 6.17, 8.22]

Field: pKd. Fill in for each record below.
1. O=C(Nc1ccc2[nH]nc(-c3ccncc3)c2c1)C1CCN(Cc2ccccc2)C1 (centres unmarked) [Compound 64]
2. O=C(Nc1ccc2[nH]nc(-c3ccncc3)c2c1)C1CNCCN1c1ccccc1 (centres unmarked) [Compound 54]

Response:
1. 7.45
2. 7.52

Field: pKd. Fill in for each record below.
1. N#Cc1ccc(CN2CCOC(C(=O)Nc3ccc4[nH]nc(-c5ccncc5)c4c3)C2)cc1 (centres unmarked) [Compound 30]
2. O=C(Nc1ccc2[nH]nc(-c3ccncc3)c2c1)C1CN(Cc2ccccn2)CCO1 (centres unmarked) [Compound 5]

Response:
1: 5.48; 2: 6.19

Field: pKd. Fill in for each record below.
1. O=C(Nc1ccc2[nH]nc(-c3ccncc3)c2c1)C1CN(Cc2c(F)cccc2Cl)CCO1 (centres unmarked) [Compound 37]
2. COc1cccc(CN2CCOC(C(=O)Nc3ccc4[nH]nc(-c5ccncc5)c4c3)C2)c1 (centres unmarked) [Compound 28]
3. O=C(Nc1ccc2[nH]nc(-c3ccncc3)c2c1)C1CNCCC1c1ccccc1 (centres unmarked) [Compound 53]
4. O=C(Nc1ccc2[nH]nc(-c3ccncc3)c2c1)C1CNCCS1 (centres unmarked) [Compound 17]
5. O=C(Nc1ccc2[nH]nc(-c3ccncc3)c2c1)C1CCCN(Cc2ccccc2F)C1 (centres unmarked) [Compound 22]

Response:
1. 7.57
2. 5.44
3. 7.15
4. 5.25
5. 8.05
